The reported numbers originate from ChEMBL document CHEMBL2331352.

IC50: recorded values
Tested on: RBL-2H3
Assay: Antiallergic activity in rat RBL2H3 cells assessed as inhibition of IgE/Ag-induced beta-hexosaminidase activity incubated for 30 mins by spectrophotometric analysis
Format: functional, cell-based
Settings: RBL-2H3, 0.5 h

>  <structure_notation>
C[Si](C)(C)C([Si](C)(C)C)S(=O)(=O)Cc1nnc(-c2ccc(Cl)cc2)o1

>  <IC50>
75.5 µM

$$$$
>  <structure_notation>
C[Si](C)(C)C(SCc1nnc(-c2ccccc2)o1)[Si](C)(C)C

>  <IC50>
98.8 µM

$$$$
>  <structure_notation>
Cc1ccc(-c2nnc(CS(=O)(=O)C([Si](C)(C)C)[Si](C)(C)C)o2)cc1

>  <IC50>
62.3 µM

$$$$
>  <structure_notation>
C[Si](C)(C)C([Si](C)(C)C)S(=O)(=O)Cc1nnc(-c2ccccc2)o1

>  <IC50>
37.2 µM

$$$$
